variants and their reported normalized RNA/DNA level with ligand (log10)
B1: library; a variant is named by its letters at N, in order (parent)
chain: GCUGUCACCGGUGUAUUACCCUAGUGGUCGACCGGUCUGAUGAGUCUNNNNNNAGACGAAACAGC

Variants of: B1
Test: normalized RNA/DNA level with ligand (relative to sTRSVctl = 100) (log10 (% of sTRSVctl)); ligand: hypoxanthine (xanthine aptamer); higher = less ribozyme self-cleavage, higher mRNA level
Settings: ligand concentration (+) RNA-Seq: 5 mM, HEK293T, reporter: mCherry (pCS4076), ligand present: yes
parameter-measured: normalized RNA/DNA level with ligand (log10)

{"mutant-name": "AUUUGU", "value": 1.92}
{"mutant-name": "ACAAUG", "value": 1.87}
{"mutant-name": "UCAAGA", "value": 1.92}
{"mutant-name": "CUCUAU", "value": 2.03}
{"mutant-name": "GUCGUU", "value": 1.97}
{"mutant-name": "GAGGAG", "value": 1.65}
{"mutant-name": "GACAGC", "value": 1.97}
{"mutant-name": "CGUUGG", "value": 1.97}
{"mutant-name": "UGAUCG", "value": 1.93}
{"mutant-name": "GAUUGG", "value": 1.79}
{"mutant-name": "CAAUAU", "value": 1.93}
{"mutant-name": "AUGUCA", "value": 1.95}
{"mutant-name": "AGCAGA", "value": 1.88}
{"mutant-name": "UCGAAG", "value": 1.87}
